Data credit: the supplement of paper PMC11451515

- Test system: SEM cells
- protocol notes: cell viability relative to DMSO control; higher = less cytotoxic
- applied conditions: RPMI 5 mM glucose + 10% FBS; 48 h; 0.0211 µM
value type: cell viability (%)
Record the value in %, omitting the unit from your answer.

Nc1nc(OCc2ccccc2)c2nc[nH]c2n1: 92.3
O=C1NC(=O)/C(=C/c2cccc(C(F)(F)F)c2)S1: 108
COC[C@H]1OC(=O)C2=COC3=C2[C@@]1(C)\C4=C(\[C@@H]5CC[C@H](O)[C@@]5(C)C[C@H]4OC(C)=O)C3=O: 71.7
CO[C@@H]1C(N(C)C(=O)c2ccccc2)C[C@H]2O[C@]1(C)n1c3ccccc3c3c4c(c5c6ccccc6n2c5c31)C(=O)NC4=O (some centres not stated): 91.2
CCCCCCCCCCCCCCCCCCOP(=O)([O-])OC1CC[N+](C)(C)CC1: 95.3
C[C@@H]1C[C@H]2[C@@H]3CC\C4=C\C(=O)\C=C/[C@]4(C)[C@@]3(Cl)[C@@H](O)C[C@]2(C)[C@@]1(OC(=O)C5=CC=CO5)C(=O)CCl: 62.1
CN(C)C[C@@H]1CC[N]2C=C(C3=C2C=CC=C3)C/4=C(/C(=O)NC4=O)C5=C[N](CCO1)C6=C5C=CC=C6: 97
NC(=O)Nc1cc(-c2ccc(CN3CCOCC3)cc2)sc1C(N)=O: 116

# return cell viability for CNCC(O)C(O)C(O)C(O)CO.O=C(O)c1ccc(-c2cc3cccnc3c(-c3ccc4nonc4c3)n2)cc1 , test system: SEM cells
108

# return cell viability for Cc1ccc(C(=O)c2cc(O)c(O)c([N+](=O)[O-])c2)cc1 , test system: SEM cells
100

# return cell viability for C#C[C@]1(O)CC[C@H]2[C@@H]3CCc4cc(OC)ccc4[C@H]3CC[C@@]21C , test system: SEM cells
127

----------
- System: SEM cells
- protocol notes: AUC of viability dose-response curve (% viability x log10 dose units); higher = less sensitive
- applied conditions: RPMI 5 mM glucose + 10% FBS; 48 h
value type: AUC of viability dose-response curve
Number, no unit, nothing else.

Use the examples below as a reference point.
O=c1[nH]cnc2c1ncn2[C@H]1CC[C@@H](CO)O1: 409
N#CC(=C(/N)Sc1ccccc1N)/C(C#N)=C(\N)Sc1ccccc1N: 444
CC(=O)Nc1sc2c(c1-c1nc3ccccc3s1)CNC2: 443
Cc1ncc([N+](=O)[O-])n1CCO: 477
CCOC(=O)[C@H](CCc1ccccc1)N[C@@H](C)C(=O)N1[C@H](C(=O)O)C[C@@H]2CCC[C@@H]21: 440

Return value of AUC of viability dose-response curve for input Nc1nc(F)nc2c1ncn2[C@@H]1O[C@H](CO)[C@@H](O)[C@H]1O , no commentary.
229

Return value of AUC of viability dose-response curve for input CC(C)C[C@H](NC(=O)[C@H](Cc1ccccc1)NC(=O)c1cnccn1)B(O)O , no commentary.
147

Return value of AUC of viability dose-response curve for input CC(=O)NC[C@H]1CN(c2ccc(N3CCOCC3)c(F)c2)C(=O)O1 , no commentary.
476

Return value of AUC of viability dose-response curve for input Oc1cc(O)cc(/C=C/c2ccc(O)c(O)c2)c1 , no commentary.
430

Return value of AUC of viability dose-response curve for input C[C@@H]1C[C@H]2[C@@H]3CC\C4=C\C(=O)\C=C/[C@]4(C)[C@@]3(Cl)[C@@H](O)C[C@]2(C)[C@@]1(OC(=O)C5=CC=CO5)C(=O)CCl , no commentary.
236

----------
- System: SEM cells
- protocol notes: cell viability relative to DMSO control; higher = less cytotoxic
- applied conditions: RPMI 5 mM glucose + 10% dialyzed FBS; 48 h; 0.000781 µM
Let's look at some compounds and their measured cell viability.
Record the value in %, omitting the unit from your answer.

Return value of cell viability for input CCCCCCCCCCCCCCCCCCOP(=O)([O-])OC1CC[N+](C)(C)CC1 , no commentary.
101

Return value of cell viability for input CC(=O)[C@H]1CC[C@H]2[C@@H]3CCC4=CC(=O)CC[C@]4(C)[C@H]3CC[C@]12C , no commentary.
108

Return value of cell viability for input Nc1nc(OCc2ccccc2)c2nc[nH]c2n1 , no commentary.
90.2

Return value of cell viability for input CC1(C)CC(O)CC(C)(C)N1[O] , no commentary.
98.6

Return value of cell viability for input O=c1[nH]cnc2c1ncn2[C@H]1CC[C@@H](CO)O1 , no commentary.
77.6

Return value of cell viability for input C=CCn1c(=O)c2cnc(Nc3ccc(N4CCN(C)CC4)cc3)nc2n1-c1cccc(C(C)(C)O)n1 , no commentary.
111

Return value of cell viability for input CC(C)(C)NC(=O)[C@@H]1CN(Cc2cccnc2)CCN1C[C@@H](O)C[C@@H](Cc1ccccc1)C(=O)N[C@H]1c2ccccc2C[C@H]1O.O=S(=O)(O)O , no commentary.
102

Return value of cell viability for input Cc1cc(O)c2c(c1)C(=O)c1cc(O)cc(O)c1C2=O , no commentary.
92.7

Return value of cell viability for input O=C(CCc1ccc(O)cc1)c1c(O)cc(O)cc1O[C@@H]1O[C@H](CO)[C@@H](O)[C@H](O)[C@H]1O , no commentary.
61.4

Return value of cell viability for input Cc1[nH]c(/C=C2\C(=O)Nc3ccc([S+](=O)([O-])Cc4c(Cl)cccc4Cl)cc32)c(C)c1C(=O)N1CCC[C@@H]1CN1CCCC1 , no commentary.
84.9

Return value of cell viability for input COC1=CC=C(C=C1)C2CC(=N/N2C3=CC=C(C=C3)[S+](N)([O-])=O)\C4=CC=CC=C4 (stereo not drawn) , no commentary.
87.3

Return value of cell viability for input C[C@@H]1C[C@H]2[C@@H]3CC\C4=C\C(=O)\C=C/[C@]4(C)[C@@]3(Cl)[C@@H](O)C[C@]2(C)[C@@]1(OC(=O)C5=CC=CO5)C(=O)CCl , no commentary.
30.9

----------
- System: SEM cells
- protocol notes: cell viability relative to DMSO control; higher = less cytotoxic
- applied conditions: RPMI 5 mM glucose + 10% FBS; 48 h; 0.000781 µM
value type: cell viability (%)
Record the value in %, omitting the unit from your answer.

COc1cc([C@@H]2c3cc4c(cc3[C@@H](O[C@@H]3O[C@@H]5CO[C@@H](c6cccs6)O[C@H]5[C@H](O)[C@H]3O)[C@H]3COC(=O)[C@H]23)OCO4)cc(OC)c1O: 96.7
Clc1ccccc1CN1CCc2sccc2C1: 94.3
O=C(NNC(=O)c1ccc(CN[S+](=O)([O-])c2ccc(F)c(Cl)c2)cc1)c1ccccc1: 92.9
Cc1ccc(C(=O)c2cc(O)c(O)c([N+](=O)[O-])c2)cc1: 92.6
O=C1N\2CCC3=C([NH]C4=C3C=CC=C4)C2=N/C5=CC=CC=C15: 124
Cc1ccc(-c2ncn(-c3ccc(Nc4nccc(-c5cccc(N6CCOCC6)c5)n4)cc3)n2)cn1: 90.3
CC(NCc1ccc2c(c1)[nH]/c(=N\C(=O)c1ccc(-c3cn[nH]c3)s1)n2CC(C)(C)O)C(C)(C)C (stereo not drawn): 96.7
COC(=O)[C@@H](N)CCCNC(=N)N[N+](=O)[O-]: 95.5
NCC(=O)Nc1ccc(-n2nc(C(F)(F)F)cc2-c2ccc3c(ccc4ccccc43)c2)cc1: 87.7
CC(C)(C)c1cc(C(=O)O)c(NC(=O)Nc2ccc3[nH]ncc3c2)s1: 112

Return value of cell viability for input COC1=CC2=C(C=C1OC)[C@H]3[C@@H](CO2)OC4=C(C=CC5=C4\C=C/C(C)(C)O5)C3=O , no commentary.
95.1

Return value of cell viability for input Cc1c(C(=O)Nc2cccc(C(F)(F)F)c2)cc(-c2ccccc2)n1CCCN1CCOCC1 , no commentary.
89.6

Return value of cell viability for input CCCCCCCCc1ccc(CCC(N)(CO)CO)cc1 , no commentary.
99.4

Return value of cell viability for input CC(C)NCC(O)c1ccc(NS(C)(=O)=O)cc1 (stereo not drawn) , no commentary.
109

Return value of cell viability for input O=C1NC(=O)/C(=C/c2cccc(C(F)(F)F)c2)S1 , no commentary.
99.5

Return value of cell viability for input COc1ccc2c(c1OC)CN1CCc3cc4c(cc3C1C2)OCO4 (stereo not drawn) , no commentary.
92.5

Return value of cell viability for input C#C[C@]1(O)CC[C@H]2[C@@H]3CCc4cc(OC)ccc4[C@H]3CC[C@@]21C , no commentary.
119

Return value of cell viability for input O=c1[nH]cnc2c1ncn2[C@H]1CC[C@@H](CO)O1 , no commentary.
85.1

Return value of cell viability for input CN(C)c1ccc(Nc2nc(N)n(C(=O)c3c(F)cccc3F)n2)cc1 , no commentary.
108

Return value of cell viability for input Oc1cc(O)cc(/C=C/c2ccc(O)c(O)c2)c1 , no commentary.
101

Return value of cell viability for input C[C@@H]1CC[C@@]2(OC1)OC1CC3C4CC=C5CC(O)CCC5(C)C4CCC3(C)C1[C@@H]2C (stereo partly drawn) , no commentary.
85.9

Return value of cell viability for input CC(C)(C)NC(=O)[C@@H]1CN(Cc2cccnc2)CCN1C[C@@H](O)C[C@@H](Cc1ccccc1)C(=O)N[C@H]1c2ccccc2C[C@H]1O.O=S(=O)(O)O , no commentary.
109

Return value of cell viability for input CC(=O)[C@H]1CC[C@H]2[C@@H]3CCC4=CC(=O)CC[C@]4(C)[C@H]3CC[C@]12C , no commentary.
98
